# Tested on: mouse leukemia L1210
# protocol.text: Antitumor activity test on mouse leukemia L1210 in vivo
# conditions.used: L1210, average survival time treated/control ×100, i.p. once a day for 5 days

molecule: CC1(C)CCC[NH2+][Pt-2]([Cl])([Cl])[NH2+]1 [Compound No. 25]
max (T/C): 150%
--
molecule: CC(N)CCCN.O=C([O-])C1(C(=O)[O-])CCC1.[Pt+2] [Compound No. 7]
max (T/C): 176%
--
molecule: O=C1[O][Pt-2]2([NH2+]CCCC[NH2+]2)[O]C(=O)C12CCOCC2 [Compound No. 3]
max (T/C): 132%
--
molecule: CC1(C)CC[NH2+][Pt-2]2([NH2+]C1)[O]C(=O)C(C)(C)C(=O)[O]2 [Compound No. 24]
max (T/C): 253%

The measurements presented in this section are drawn from patent US4921984A.
